Hey, just so you know, these numbers are from PubChem BioAssay (NCI).

- System: EKVX NSCLC
- MEASUREMENT_NOTES: NCI-60 one-dose screen, 48 h (100 = growth as untreated, 0 = no growth, -100 = all killed)
- TEST_CONDITIONS: 10 µM unless noted
Compounds without any hit were thinned out: in the full panel of roughly 83,000, 20% have a hit.
RECORDED_ENDPOINT: growth (%)
Form entry: value (%) — number only.

{"columns": ["COMPOUND", "SYSTEM_UNDER_TEST", "ENDPOINT_UNIT", "growth"],
 "data": [
  ["O=C(N/N=C/c1ccc(F)cc1)c1ccccc1Nc1cccc(C(F)(F)F)c1", "EKVX NSCLC", "%", 102],
  ["COc1cccc(CNCCN2C(=O)c3ccc4c5c(ccc(c35)C2=O)C(=O)N(CCNCc2cccc(OC)c2)C4=O)c1", "EKVX NSCLC", "%", 121],
  ["CCOc1cc(CNc2ccc(N3CCOCC3)c(C(=O)O)c2)ccc1OC", "EKVX NSCLC", "%", 96.9]
]}

EKVX NSCLC / growth / CCOC(=O)c1c(C)nc2c(c1N)C(=O)C(=O)N2Cc1ccc(C(F)(F)F)cc1 : value? 79.5

EKVX NSCLC / growth / OC(c1ccccc1)c1ccccn1 (stereo not given) : value? 98.8
